Molecular target: T1, Recombinant MBP-mutCALR Type 1 fusion protein (human)
T1 construct: custom made at Cepter; also called recombinant mutCALR protein
Assay: SPR, IgG captured, 1:1 fit, Exp. 2
QUANTITY_KIND: Kd
Could you kindly put the unit after your number?

The binder identified as anti-mutCALR antibody clone 128 (antibody, human IgG1, lambda, N297A, V domains shown, human IgG1 N297A variant of clone 15) VH: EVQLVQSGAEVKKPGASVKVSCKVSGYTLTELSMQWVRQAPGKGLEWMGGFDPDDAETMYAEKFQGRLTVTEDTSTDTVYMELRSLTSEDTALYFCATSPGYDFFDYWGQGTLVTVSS VL: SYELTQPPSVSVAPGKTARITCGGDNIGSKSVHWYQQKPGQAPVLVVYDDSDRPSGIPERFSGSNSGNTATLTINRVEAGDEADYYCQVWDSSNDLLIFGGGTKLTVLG registered its Kd at 1.61 nM

Sample anti-mutCALR antibody clone 187 (antibody, human IgG1, lambda, N297A, V domains shown, human IgG1 N297A variant of clone 17) VH: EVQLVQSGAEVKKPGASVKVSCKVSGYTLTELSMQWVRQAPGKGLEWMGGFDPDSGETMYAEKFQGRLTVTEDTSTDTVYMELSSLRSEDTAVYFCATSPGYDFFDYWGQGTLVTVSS VL: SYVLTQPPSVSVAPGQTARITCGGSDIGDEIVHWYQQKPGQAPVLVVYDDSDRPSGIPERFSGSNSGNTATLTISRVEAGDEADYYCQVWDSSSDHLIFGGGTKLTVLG ; Kd observed: 1.59 nM

For reference, reported Kd for anti-mutCALR antibody clone 79 (antibody, human IgG1, lambda, N297A, V domains shown, human IgG1 N297A variant of clone 6) VH: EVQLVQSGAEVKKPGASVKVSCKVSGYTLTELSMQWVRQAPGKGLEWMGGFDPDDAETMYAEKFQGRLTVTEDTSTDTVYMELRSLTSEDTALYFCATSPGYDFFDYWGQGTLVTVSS VL: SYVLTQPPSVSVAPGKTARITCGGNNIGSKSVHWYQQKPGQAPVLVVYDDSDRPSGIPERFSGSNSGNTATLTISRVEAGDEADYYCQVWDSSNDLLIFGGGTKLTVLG stands at 1.39 nM
